From: ChEMBL document CHEMBL3297692

- test.system: Muscarinic acetylcholine receptor M1 (Homo sapiens) (UniProt P11229)
- Sequence (P11229 whole entry): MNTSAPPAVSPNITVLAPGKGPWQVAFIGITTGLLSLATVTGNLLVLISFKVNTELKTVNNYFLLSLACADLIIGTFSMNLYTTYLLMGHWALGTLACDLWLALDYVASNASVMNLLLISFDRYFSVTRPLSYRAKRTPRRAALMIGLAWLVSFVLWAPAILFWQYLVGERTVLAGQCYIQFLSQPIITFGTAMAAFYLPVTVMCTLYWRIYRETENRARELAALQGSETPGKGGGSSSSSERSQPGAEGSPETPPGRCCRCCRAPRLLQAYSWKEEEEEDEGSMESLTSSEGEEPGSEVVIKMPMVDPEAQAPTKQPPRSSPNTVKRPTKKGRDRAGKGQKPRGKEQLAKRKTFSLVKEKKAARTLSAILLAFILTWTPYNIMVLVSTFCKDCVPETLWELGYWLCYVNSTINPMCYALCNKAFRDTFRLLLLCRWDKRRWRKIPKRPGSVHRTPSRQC
- assay.overview: Positive allosteric modulation of human mAChR1 expressed in CHONFAT cells assessed as potention of acetylcholine-induced effect incubated for 4 mins prior to acetylcholine addition measured after 4 mins by FLIPR assay
- Type: cell-based
The following compounds are shown together with reported IP values.
observation.type: IP

Cc1cccc(C2(C#N)CCN(Cc3cc4c(c5ccccc35)CN([C@H]3CCCC[C@@H]3O)C4=O)CC2)n1	27 nM
O=C1c2cc(CN3CCC(F)(c4ccccn4)CC3)c3ccccc3c2CN1[C@H]1CCCC[C@@H]1O	58 nM
N#CC1(c2cccnc2)CCN(Cc2cc3c(c4ccccc24)CN([C@H]2CCCC[C@@H]2O)C3=O)CC1	22 nM
N#CC1(c2ccccn2)CCN(Cc2cc3c(c4ccccc24)CN([C@H]2CCCC[C@H]2O)C3=O)CC1	150 nM
